# Target Or Test System: hPPARγ-LBD (Homo sapiens, UniProt P37231)
Outcome Measure: pKd
Please note pKd is a logarithmic value: minus log10 of concentration in mol/L. Answer with that number alone.

Per the records, this compound ( CCN(CC)c1ccc2c(N(C)CCOc3ccc(CC4SC(=O)NC4=O)cc3)cc(=O)oc2c1 (stereo not shown) [Compound 2] ) has pKd equal to 5.81

###

# Target Or Test System: PPARγ (Homo sapiens, UniProt P37231)
# Sequence (P37231 232-505 limits assumed): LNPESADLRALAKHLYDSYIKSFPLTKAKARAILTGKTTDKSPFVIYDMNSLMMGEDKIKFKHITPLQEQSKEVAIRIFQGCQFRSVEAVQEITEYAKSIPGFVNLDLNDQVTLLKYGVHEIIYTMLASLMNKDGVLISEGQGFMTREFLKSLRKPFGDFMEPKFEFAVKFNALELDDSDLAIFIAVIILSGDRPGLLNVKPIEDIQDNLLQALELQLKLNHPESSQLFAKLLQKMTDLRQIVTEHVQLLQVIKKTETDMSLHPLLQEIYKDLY
# Procedure Summary: Transactivation dual luciferase assay in COS-7 cells with GAL4-PPARγ chimera
# Test Conditions: PPARγ transcriptional activity
# Description: Transactivation in COS-7 cells was measured using a dual luciferase assay according to a previously reported procedure. EC50s were calculated by GraphPad Prism 6 (GraphPad Software, San Diego, USA) (<A>LogEC = LogEC50Control <~A>LogEC = LogEC50Control + log(EC50Ratio) Y = Bottom + (Top-Bottom)/(1 + 10^((LogEC-X) × HillSlope))). The data represent the mean ± SD of three independent experiments. Biological experiments section […]
Outcome Measure: EC50 (nM)
Your answer is read as nM, so omit the unit and give the number.

Record for CCN1C(=O)SC(Cc2ccc(OCCN(C)c3cc(=O)oc4cc(N(CC)CC)ccc34)cc2)C1=O (stereo not drawn) under target or system PPARγ (Homo sapiens, UniProt P37231): EC50 reported as 350

Entry CCN(CC)c1ccc2c(N(C)CCOc3ccc(CC4SC(=O)NC4=O)cc3)cc(=O)oc2c1 (stereo not drawn) : EC50 on PPARγ (Homo sapiens, UniProt P37231) = 34

With PPARγ (Homo sapiens, UniProt P37231) as the test system, COc1ccc2c(N(C)CCOc3ccc(CC4SC(=O)NC4=O)cc3)cc(=O)oc2c1 (stereo not drawn) showed EC50 of 180
